tested on: A673 cells; experiment: Cytotoxicity assay in A673 cells; format: cell-based, human; conditions: Homo sapiens, A673, 48 h, read-out: A673 cells Cytotox. IC50
Quantity Measured: pIC50
Schema: pIC50 number; meaning minus log10 of the concentration expressed in molar units.

Solved cases below.
Compound	pIC50
NS(=O)(=O)c1ccc(Cc2c(-c3ccc(F)c(C#CC4(O)CCCC4)c3)nn(-c3nc(C(=O)O)cs3)c2CC2CC2)cc1F	5.66
Cc1ccc(C#Cc2cccc(-c3nn(-c4nc(C(=O)O)cs4)c(C(C4CC4)C4CC4)c3Cc3ccc(S(N)(=O)=O)c(F)c3)c2)s1	4.58
Cc1ccc(C#Cc2cccc(-c3nn(-c4nc(C(=O)O)cs4)c(C(C)(C)C4CC4)c3Cc3ccc(S(N)(=O)=O)c(F)c3)c2)s1	5.23
NS(=O)(=O)c1ccc(Cc2c(-c3ccc(F)c(C#CC4(F)CCCC4)c3)nn(-c3nc(C(=O)O)cs3)c2CC2CC2)cc1F	6.16
NS(=O)(=O)c1ccc(Cc2c(-c3ccc(F)c(C#CC4(F)CCOC4)c3)nn(-c3nc(C(=O)O)cs3)c2CC2CC2)cc1F (stereo not drawn)	5.98

Dear colleague, I am looking for the recorded pIC50 of the following compound: CC1(C#Cc2cc(-c3nn(-c4nc(C(=O)O)cs4)c(CC4CC4)c3Cc3ccc(S(N)(=O)=O)c(F)c3)ccc2F)COC1
5.93

Field request: pIC50 | item: C=C(c1cc(-c2nn(-c3nc(C(=O)O)cs3)c(CC3CC3)c2Cc2ccc(S(N)(=O)=O)c(F)c2)ccc1F)C(F)(F)F
4.80

Bench note: what pIC50 did Cc1ccc(C#Cc2cccc(-c3nn(-c4nc(C(=O)O)cs4)c(C(C)C4CC4)c3Cc3ccc(S(N)(=O)=O)c(F)c3)c2)s1 (stereo not drawn) show?
6.01

Need pIC50, item NS(=O)(=O)c1ccc(Cc2c(-c3ccc(F)c(C#CC4(O)COC4)c3)nn(-c3nc(C(=O)O)cs3)c2CC2CC2)cc1F
5.45

# lookup: pIC50 of Cc1cc(C#Cc2cccc(-c3nn(-c4nc(C(=O)O)cs4)c(CCC4CC4)c3Cc3ccc(S(N)(=O)=O)c(F)c3)c2)cs1
6.71

Item under review: NS(=O)(=O)c1ccc(Cc2c(-c3ccc(F)c(C#CC4(O)CCOC4)c3)nn(-c3nc(C(=O)O)cs3)c2CC2CC2)cc1F (stereo not drawn) . Reported pIC50?
5.58

Origin of the recorded values: paper PMC7830743
